Biological target: V600E-B-RAF (Homo sapiens (Human), UniProt P15056, V600E)
Sequence (P15056 whole entry V600E): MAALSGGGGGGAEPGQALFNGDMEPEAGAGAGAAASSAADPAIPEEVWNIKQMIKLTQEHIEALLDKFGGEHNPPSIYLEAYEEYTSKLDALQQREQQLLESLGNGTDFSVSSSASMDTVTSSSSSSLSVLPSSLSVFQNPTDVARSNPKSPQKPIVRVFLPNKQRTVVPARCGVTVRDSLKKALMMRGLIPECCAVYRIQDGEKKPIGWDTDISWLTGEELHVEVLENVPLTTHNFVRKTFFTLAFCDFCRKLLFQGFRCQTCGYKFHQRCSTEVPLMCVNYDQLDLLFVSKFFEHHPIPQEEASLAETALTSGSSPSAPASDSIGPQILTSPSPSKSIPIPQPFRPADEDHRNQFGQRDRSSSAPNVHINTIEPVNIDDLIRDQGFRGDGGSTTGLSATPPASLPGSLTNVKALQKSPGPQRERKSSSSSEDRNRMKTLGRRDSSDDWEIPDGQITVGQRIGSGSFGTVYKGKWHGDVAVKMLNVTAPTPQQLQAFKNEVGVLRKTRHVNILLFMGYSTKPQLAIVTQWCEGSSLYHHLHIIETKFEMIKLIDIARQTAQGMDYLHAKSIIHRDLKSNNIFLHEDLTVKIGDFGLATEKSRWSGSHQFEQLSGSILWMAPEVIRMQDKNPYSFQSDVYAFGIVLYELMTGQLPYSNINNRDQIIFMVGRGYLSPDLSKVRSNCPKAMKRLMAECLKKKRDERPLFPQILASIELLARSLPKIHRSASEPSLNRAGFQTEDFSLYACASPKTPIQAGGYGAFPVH
Test: Protein kinase enzymatic activity (Reaction Biology kinase hotspot), V600E-B-RAF
Conditions: read-out: Inhibitory effect against kinase activity of V600E-B-RAF (IC50)
pIC50: −log10 of the molar value.
measure_name: pIC50

Known results for molecules:
# molecule, pIC50
records = [
    ("O=S(=O)(NCCCNc1nccc(-c2c(-c3ccc(F)c(O)c3)nc3occn23)n1)c1ccccc1", 9.80),
    ("CCN1CCN(CCNc2nccc(-c3c(-c4ccc(F)c(O)c4)nc4sccn34)n2)S1(=O)=O [Compound 31II]", 9.01),
    ("O=S(=O)(NCCCNc1nccc(-c2c(-c3ccc(F)c(O)c3)nc3occn23)n1)c1ccc(Cl)cc1", 9.82),
    ("O=S(=O)(NCCCNc1nccc(-c2c(-c3ccc(F)c(O)c3)nc3sccn23)n1)c1ccc(Cl)cc1", 9.57),
    ("O=S(=O)(NCCNc1nccc(-c2c(-c3ccc(F)c(O)c3)nc3occn23)n1)c1ccc(Cl)cc1", 9.43),
]

[1] O=S(=O)(NCCNc1nccc(-c2c(-c3ccc(F)c(O)c3)nc3sccn23)n1)c1ccccc1
[2] COc1ccc(S(=O)(=O)NCCCNc2nccc(-c3c(-c4ccc(F)c(O)c4)nc4occn34)n2)cc1
Lower value for measured pIC50? Options: 1 , 2 Respond using the label that marks the chosen record. 1

====

Target: V600E-B-RAF (Homo sapiens (Human), UniProt P15056, V600E)
Test: Protein kinase enzymatic activity (Reaction Biology kinase hotspot), V600E-B-RAF
Details: read-out: Inhibitory effect against kinase activity of V600E-B-RAF (IC50)
measure_name: IC50 (nM)

[a] COc1cc(-c2nc3sccn3c2-c2ccnc(NCCCNS(=O)(=O)c3ccc(Cl)cc3)n2)ccc1F
[b] COc1ccc(S(=O)(=O)NCCCNc2nccc(-c3c(-c4ccc(F)c(O)c4)nc4sccn34)n2)cc1
[c] O=S(=O)(NCCNc1nccc(-c2c(-c3ccc(F)c(O)c3)nc3sccn23)n1)c1ccc(Cl)cc1
[d] O=S(=O)(NCCCNc1nccc(-c2c(-c3ccc(F)c(O)c3)nc3sccn23)n1)c1ccc(F)cc1
Task field, ranking: reported IC50, descending order. // rank by listing labels in the order requested c, a, d, b
(c: 6.96 nM, a: 1.89 nM, d: 0.36 nM, b: 0.05 nM)

====

Target: V600E-B-RAF (Homo sapiens (Human), UniProt P15056, V600E)
Experiment: Protein kinase enzymatic activity (Reaction Biology kinase hotspot), V600E-B-RAF
Settings: read-out: Inhibitory effect against kinase activity of V600E-B-RAF (IC50)
Method: Reaction biology kinase hotspot service (http://www.reactionbiology.com) was used to measure IC50. In a final reaction volume of 25 μL, kinase (5 mU to 10 mU) was incubated with 25 mM Tris (pH 7.5), 0.02 mM EGTA, 0.66 mg/ml of myelin basic protein, 10 mM magnesium acetate, and [^33P-ATP] (specific activity of about 500 CPM/pmol, concentration as required). The reaction was initiated by addition of Mg-ATP mix. […]
pIC50: −log10 of the molar value.
measure_name: pIC50

Known results for compounds:
# molecular_string, pIC50
records = [
    ("COc1cc(-c2nc3sccn3c2-c2ccnc(NCCCNS(=O)(=O)c3ccc(F)cc3)n2)ccc1F", 8.78),
    ("Nc1cc(-c2nc3sccn3c2-c2ccnc(NCCCNS(=O)(=O)c3ccc(F)cc3)n2)ccc1F", 8.99),
]

[P] COc1cc(-c2nc3occn3c2-c2ccnc(NCCCNS(=O)(=O)c3ccc(Cl)cc3)n2)ccc1F
[Q] O=S(=O)(NCCNc1nccc(-c2c(-c3ccc(F)c(O)c3)nc3occn23)n1)c1ccc(F)cc1
Hi, I'm comparing P with Q and wondering which one has the bigger number for pIC50. Any idea? Respond using the label that marks the chosen record. Q
(Q: 9.44, P: 7.95)
